- System: c-Src
- test-description: phosphorylation enrichment, bacterial display (enrichment ratio); higher = better substrate or ligand; peptides without Tyr show the background
Output 1 for phosphorylation enrichment not less than 0.5; output -1 otherwise.

Study these solved cases before continuing.
RLLRGYRQDAY [HLA-A_Y137_F133L] : 1
SLFNGYVYSGM [NEIL3_Y71_V76M] : 1
EILDVYIFLGP [GAA_Y340_G335E] : 1
DDKQPYEKKAA [HMGB1_Y144] : -1
FAELMYTGFWH [ASS1_Y322_V321M] : 1
MRTMGYMPTEM [CABP5_Y62] : -1

Say whether PLQDVYKIGGI [EEF1A2_Y254] shows phosphorylation enrichment of 0.5 or more.
1

Could you please find out whether "SKDSAYVTWEP" has phosphorylation enrichment that meets 0.5 or exceeds it?
1

----------
- measurement-target: EPHB2 (UniProt P29323)
- Sequence (P29323 whole entry, looked up): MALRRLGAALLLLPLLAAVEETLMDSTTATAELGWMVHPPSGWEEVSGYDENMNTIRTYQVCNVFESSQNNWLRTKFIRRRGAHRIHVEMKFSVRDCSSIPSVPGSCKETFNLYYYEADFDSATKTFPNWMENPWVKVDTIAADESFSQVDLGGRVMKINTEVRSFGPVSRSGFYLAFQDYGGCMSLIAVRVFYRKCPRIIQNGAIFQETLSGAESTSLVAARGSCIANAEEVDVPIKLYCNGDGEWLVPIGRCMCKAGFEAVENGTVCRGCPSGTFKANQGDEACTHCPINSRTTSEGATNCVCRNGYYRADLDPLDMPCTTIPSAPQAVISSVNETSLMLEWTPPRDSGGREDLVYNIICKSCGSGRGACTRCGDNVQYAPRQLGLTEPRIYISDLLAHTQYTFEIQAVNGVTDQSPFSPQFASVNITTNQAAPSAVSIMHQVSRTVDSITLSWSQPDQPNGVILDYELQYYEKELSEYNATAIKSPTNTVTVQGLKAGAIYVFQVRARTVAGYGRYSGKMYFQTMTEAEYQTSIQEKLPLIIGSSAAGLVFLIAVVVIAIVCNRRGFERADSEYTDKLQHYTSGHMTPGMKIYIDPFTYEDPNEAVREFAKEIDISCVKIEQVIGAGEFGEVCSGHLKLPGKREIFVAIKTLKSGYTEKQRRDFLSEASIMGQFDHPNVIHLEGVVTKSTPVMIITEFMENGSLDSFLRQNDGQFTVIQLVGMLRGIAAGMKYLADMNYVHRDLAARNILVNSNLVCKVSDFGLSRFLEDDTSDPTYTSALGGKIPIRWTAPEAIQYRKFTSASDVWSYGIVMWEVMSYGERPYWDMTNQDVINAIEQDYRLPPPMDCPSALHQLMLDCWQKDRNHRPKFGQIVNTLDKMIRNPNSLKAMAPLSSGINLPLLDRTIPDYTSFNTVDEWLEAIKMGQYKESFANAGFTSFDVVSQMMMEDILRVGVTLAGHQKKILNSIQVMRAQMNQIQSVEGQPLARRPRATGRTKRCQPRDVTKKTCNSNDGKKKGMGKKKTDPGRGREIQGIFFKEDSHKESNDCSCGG
- test-description: phosphorylation enrichment, bacterial display (enrichment ratio); higher = better substrate or ligand; peptides without Tyr show the background
quantity-kind: phosphorylation enrichment

Below, 3 sequences whose answers are already recorded.
MSNVPYVMNRG [ACAT1_Y161] : 0.421
KVITDYFVDMK [MPP4_Y566_YF] : 0.547
AGQEDDDRLRP [RAC1_Y64_Y64D] : 0.669

Note: attention shifts to another entry.
Lab request: please report phosphorylation enrichment under test system EPHB2 (UniProt P29323) for EQQRAYLEGTC [HLA-C_Y183_L180Q]
0.555

----------
- measurement-target: Fes (UniProt P07332)
- Sequence (P07332 whole entry, looked up): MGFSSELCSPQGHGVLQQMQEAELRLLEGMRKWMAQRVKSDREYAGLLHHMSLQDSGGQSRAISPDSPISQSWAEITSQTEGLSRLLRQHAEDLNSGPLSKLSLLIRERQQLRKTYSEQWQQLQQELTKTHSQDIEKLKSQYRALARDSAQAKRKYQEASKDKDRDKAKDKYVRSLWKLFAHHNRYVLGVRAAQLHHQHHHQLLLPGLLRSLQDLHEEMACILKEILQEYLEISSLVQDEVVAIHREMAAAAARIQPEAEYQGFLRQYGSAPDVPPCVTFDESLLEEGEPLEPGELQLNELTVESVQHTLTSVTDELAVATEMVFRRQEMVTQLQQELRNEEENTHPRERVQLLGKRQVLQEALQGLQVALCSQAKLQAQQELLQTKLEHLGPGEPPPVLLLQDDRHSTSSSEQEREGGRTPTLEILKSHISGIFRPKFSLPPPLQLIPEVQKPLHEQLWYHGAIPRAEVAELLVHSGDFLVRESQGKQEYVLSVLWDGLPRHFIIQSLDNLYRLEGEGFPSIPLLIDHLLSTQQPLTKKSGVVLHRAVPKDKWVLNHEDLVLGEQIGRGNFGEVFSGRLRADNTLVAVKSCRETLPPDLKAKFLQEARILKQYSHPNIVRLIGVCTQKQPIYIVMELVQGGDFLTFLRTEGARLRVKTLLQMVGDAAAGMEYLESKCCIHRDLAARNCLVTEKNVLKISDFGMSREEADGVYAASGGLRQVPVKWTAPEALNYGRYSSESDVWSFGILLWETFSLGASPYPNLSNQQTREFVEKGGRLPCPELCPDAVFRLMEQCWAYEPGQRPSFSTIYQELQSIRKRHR
- test-description: phosphorylation enrichment, bacterial display (enrichment ratio); higher = better substrate or ligand; peptides without Tyr show the background
Label t when phosphorylation enrichment >= 1; otherwise f.

Before answering, review these 2 worked examples.
LQEQNYPAVDS [FAM114A1_Y115_L116P] : t
EQQRAYLEGTC [HLA-C_Y183_L180Q] : t

Identify whether the reported phosphorylation enrichment of the following sequence is 1 or greater: FGVVGYLAIMF [RNF175_Y155]
t

Please check the record KTGNIYRTEYG [MRPL3_Y265_M261T] and state if its phosphorylation enrichment is at or above 1.
f

Reported phosphorylation enrichment at or above 1? RYFTTYDTNGR [CLCA1_Y665]
f

Evaluate QMVGMYASSYM [AVPR2_Y124] : phosphorylation enrichment at minimum 1?
t

Dear colleague, could you confirm whether "LANNEYYFQVC" has phosphorylation enrichment at or above 1?
t

----------
- measurement-target: FGFR3 (UniProt P22607)
- Sequence (P22607 whole entry, looked up): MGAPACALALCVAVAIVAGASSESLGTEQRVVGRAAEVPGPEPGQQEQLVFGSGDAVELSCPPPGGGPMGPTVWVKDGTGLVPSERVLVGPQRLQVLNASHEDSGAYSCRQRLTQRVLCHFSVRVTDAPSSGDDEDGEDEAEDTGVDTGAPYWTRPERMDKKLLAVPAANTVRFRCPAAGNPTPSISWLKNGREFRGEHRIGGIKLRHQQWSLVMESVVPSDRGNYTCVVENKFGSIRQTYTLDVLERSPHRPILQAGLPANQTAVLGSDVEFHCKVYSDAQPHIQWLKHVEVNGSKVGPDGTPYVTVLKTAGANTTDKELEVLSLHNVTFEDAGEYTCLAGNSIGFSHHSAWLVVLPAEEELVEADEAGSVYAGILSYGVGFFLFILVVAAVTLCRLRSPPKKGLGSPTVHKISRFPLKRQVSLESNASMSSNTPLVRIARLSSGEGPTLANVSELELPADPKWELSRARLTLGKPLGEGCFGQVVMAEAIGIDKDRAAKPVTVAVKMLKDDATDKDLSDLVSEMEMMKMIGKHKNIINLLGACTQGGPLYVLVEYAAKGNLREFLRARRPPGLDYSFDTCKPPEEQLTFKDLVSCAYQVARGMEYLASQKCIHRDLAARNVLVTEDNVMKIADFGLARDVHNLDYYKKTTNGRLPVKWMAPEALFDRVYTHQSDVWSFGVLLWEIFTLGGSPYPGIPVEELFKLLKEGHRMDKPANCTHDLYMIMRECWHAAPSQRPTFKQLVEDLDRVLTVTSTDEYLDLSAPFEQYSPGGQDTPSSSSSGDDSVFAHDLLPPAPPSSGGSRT
- test-description: phosphorylation enrichment, bacterial display (enrichment ratio); higher = better substrate or ligand; peptides without Tyr show the background
quantity-kind: phosphorylation enrichment
Enter the number alone.

Recorded results for 5 sequences are shown here.
KTGNIYRTEYG [MRPL3_Y265_M261T] : 0.592
VIESSYQVAKA [CPT1B_Y534] : 0.404
SILAVYSKDIY [PANK2_Y400_N404I] : 0.713
PTYKHYANSTQ [SLC12A3_Y70_E68K] : 0.466
HEEDNYIELIP [NWD2_Y566] : 5.2

Entry under review: YCRHNYGAVES [HLA-DRB1_Y112_V114A] . Reported phosphorylation enrichment?
0.659

Bench note: what phosphorylation enrichment did RASDYYSQQMA [GBP6_Y334_A331S] show?
1.89

----------
- Tested on: Fer (mouse)
- test-description: phosphorylation enrichment, bacterial display (enrichment ratio); higher = better substrate or ligand; peptides without Tyr show the background
quantity-kind: phosphorylation enrichment
Just the number, please, no unit attached.

For orientation, consider the following solved cases.
PSAELYSFALP [PDGFRB_Y716_N718Y_YF] : 17.4
SVVVPYESPEV [TP53_Y220_P222S] : 0.488
MKGDYYCYLAE [YWHAG_Y131_R132C] : 1.07
DDSNLYINVKL [MTHFD1_Y52] : 0.751

Find the recorded phosphorylation enrichment belonging to ITVPAYFNDSQ [HSPA9_Y196] and report it.
0.54

Value lookup for phosphorylation enrichment; key = RKVAQYMLENE [SLC16A6_Y224_E221V]
0.861

If you can, please state the reported phosphorylation enrichment value of EILDVYIFLGP [GAA_Y340_G335E] .
0.532

Item HSGLAYTMERS [GLUD1_Y512] has what recorded phosphorylation enrichment?
0.561

----------
- measurement-target: c-Src SH2;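 further: peptide library displayed on the E. coli surface as eCPX fusions, selected cells deep-sequenced, score is each peptide's frequency after selection divided by its frequency in the input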
- test-description: SH2 binding enrichment of the phosphorylated peptide, bacterial display (enrichment ratio); higher = better substrate or ligand; peptides without Tyr show the background
quantity-kind: SH2 binding enrichment
// return a plain number; no unit text

Find the recorded SH2 binding enrichment belonging to CLLHCYFSQIH [MCM3AP_Y873_R878H] and report it.
1.38

// returns reported SH2 binding enrichment for input DLITAYRAHGF [PDHA1_Y118_H113D]
0.48

Endpoint output: SH2 binding enrichment of YEEDSYVKRSQ [RET_Y905] . Value?
1.43

// returns reported SH2 binding enrichment for input MEVGQYFFVKC [CYBB_Y324_I325F]
0.44

Quick one: SH2 binding enrichment of CLAKMYFSAVE [CP_Y539_D544E_YF] ?
0.621

Given the sequence LARDIYKNDFF [ROS1_Y2110_YF] , what is its reported SH2 binding enrichment?
0.44

Look at this sequence and give its reported SH2 binding enrichment. YGSSSYGGAGG [RPA2_Y14]
0.438

Value lookup for SH2 binding enrichment; key = PDKRIYQFTAS [SKAP2_Y197_A202S]
0.642

Suppose we examine the sequence KIEGIYARDET [RPL35A_Y34_V33I] ; what SH2 binding enrichment value has been reported?
0.548

----------
- Tested on: Fer (mouse)
- test-description: phosphorylation enrichment, bacterial display (enrichment ratio); higher = better substrate or ligand; peptides without Tyr show the background
quantity-kind: phosphorylation enrichment
Give the figure only, with no unit attached.

AVAFLYFKSIG [ADGRL4_Y301_V300L_YF] : 0.605
CLAKMYFSAVE [CP_Y539_D544E_YF] : 0.602
KRGIDYILWHM [FRMD1_Y225_R228W] : 0.591
VRSNHYDPEED [TJP1_Y1346] : 0.49
ESLRPYDVMDV [KCNQ2_Y562] : 0.846
AGADGYGFLAP [FOXL2_Y186_YF] : 0.611

In the following, a different sequence is considered.
Request body: readout phosphorylation enrichment, system Fer (mouse), query VDSAHYKLLET [DTX3L_Y385] . Return the value.
0.427

----------
The entries below come with measured phosphorylation enrichment values attached.
- Test system: AncSZ
- test-description: phosphorylation enrichment, bacterial display (enrichment ratio); higher = better substrate or ligand; peptides without Tyr show the background

FGMQLYQNFMH [GRB14_Y347_YF] : 1.06
NTYEKYLEEEY [TF_Y669_G671E] : 1.6
AKRKGYDMRVD [NEB_Y2770] : 0.459
LAETSYVTVLE [MAGEA1_Y276_K278T] : 1.65

Short answer please: phosphorylation enrichment, AncSZ, entry QIGRKYKKVRF [F8_Y442_R437Q]
0.84

Fill in the recorded phosphorylation enrichment for this sequence, with AncSZ as test system: GGGGSYNNFGN [HNRNPA1_Y312_D314N]
0.545

----------
- measurement-target: Hck (UniProt P08631)
- Sequence (P08631 whole entry, looked up): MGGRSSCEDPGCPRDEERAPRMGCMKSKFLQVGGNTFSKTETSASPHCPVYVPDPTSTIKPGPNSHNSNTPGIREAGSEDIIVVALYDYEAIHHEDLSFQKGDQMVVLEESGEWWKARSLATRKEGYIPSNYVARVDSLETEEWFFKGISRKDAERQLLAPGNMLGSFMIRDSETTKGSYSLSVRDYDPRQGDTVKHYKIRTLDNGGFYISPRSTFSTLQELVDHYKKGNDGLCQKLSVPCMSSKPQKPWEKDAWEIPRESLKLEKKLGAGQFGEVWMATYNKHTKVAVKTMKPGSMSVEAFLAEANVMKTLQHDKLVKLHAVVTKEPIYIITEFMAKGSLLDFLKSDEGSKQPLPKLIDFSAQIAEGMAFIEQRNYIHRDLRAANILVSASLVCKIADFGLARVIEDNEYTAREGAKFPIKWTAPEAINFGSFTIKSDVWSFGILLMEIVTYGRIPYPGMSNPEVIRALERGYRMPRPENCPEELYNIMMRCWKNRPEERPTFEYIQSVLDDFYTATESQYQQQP
- test-description: phosphorylation enrichment, bacterial display (enrichment ratio); higher = better substrate or ligand; peptides without Tyr show the background
quantity-kind: phosphorylation enrichment
Give only the figure.

SVGGLYRDMGA [CBX8_Y321_G317V] : 0.481
VVEVTYDDVPI [FLNB_Y1308] : 1.82
VEDHFYEGGIG [TKT_Y564_YF] : 0.538
LLANAYIFVVQ [L1CAM_Y418_YF] : 0.569
MTYVFYRENLR [NLRP14_Y443] : 1.03
KVKSIYFHTQG [AR_Y916_P914S] : 0.414
ANSPVYVPTTR [GATA6_Y188_S184N] : 0.583
FRPHLYGTPSR [ADGRE2_Y670_S665F] : 0.948

Requested field: phosphorylation enrichment. Item: VVIVLYFSLWK [SLC6A2_Y249]
0.42

Data request, read-out phosphorylation enrichment, for QKLPSYILENN [VPS13B_Y2774]
0.792

Data request, read-out phosphorylation enrichment, for VTRLWYPVCFG [ITK_Y336_R335W]
0.488

Using the record for NRVEIYDKTVE [CYFIP1_Y108_E109D] , report its phosphorylation enrichment.
0.682

Can you look up the measured phosphorylation enrichment of TINPIHEHVGF [CHN1_Y143_Y143H_YF] for me?
0.299

What does the record list as phosphorylation enrichment for AAVNGYAFGGG [ECHS1_Y137] ?
0.344

----------
Each entry below carries its recorded phosphorylation enrichment.
- Test system: Fer (mouse)
- test-description: phosphorylation enrichment, bacterial display (enrichment ratio); higher = better substrate or ligand; peptides without Tyr show the background
Lab note: jot the number down without any unit.

Examples from the recorded data:
VSLEAYCKHKY [RXRA_Y403_A398V] : 0.541
PDSVDYPKKGY [CTSK_Y121_R122P] : 0.832
MEVGQYFFVKC [CYBB_Y324_I325F] : 0.801
FCRITYDIFPF [INTS13_Y67_M66T_YF] : 0.594

Given the sequence VDGSVYKLHPS [GCK_Y413] , what is its reported phosphorylation enrichment?
0.642

Record request: phosphorylation enrichment value, item KANEFYPVVII [ADAMTS18_Y765_L769I_YF]
0.456

Quick check: phosphorylation enrichment of KELAKYYKLHH [AK7_Y390_N389K] ?
0.383

What value of phosphorylation enrichment has been reported for the following sequence? RLPNGYGLAYR [DLK1_Y262_S260N]
0.504

Please give the measured phosphorylation enrichment for this sequence: HRLSTYTKMLF [CHST8_Y251]
0.689
